# Procedure Details: in vitro
# Recorded Conditions: human, CC50, uninfected A549 cells, CellTiter-Glo
Recorded Metric: CC50

Form field CC50, entry CC[C@@H]1/C=C/COc2cc(Cl)ccc2[C@@H](c2ccccc2)N2CN1C(=O)c1c(O)c(=O)ccn12 (single isomer, unassigned) [Compound 97AA] : > 1000 nM

Form field CC50, entry O=C1c2c(O)c(=O)ccn2N2CN1C/C=C\CCCOc1ccccc1C2c1ccccc1 (stereo not shown) : > 2000 nM

Form field CC50, entry COc1ccccc1[C@H]1c2cccc(F)c2OC/C=C\CN2CN1n1ccc(=O)c(O)c1C2=O (single isomer, unassigned) [Compound 117B] : > 200 nM

Form field CC50, entry C/C1=C/CN2CN([C@@H](c3ccccc3)c3ccccc3OC1)n1ccc(=O)c(O)c1C2=O (single isomer, unassigned) [Compound 44B] : > 20000 nM

Form field CC50, entry O=C1c2c(O)c(=O)ccn2N2CN1C/C=C\COc1ccc(F)cc1[C@@H]2c1cccc(F)c1 (single isomer, unassigned) [Compound 25B] : > 2000 nM

Form field CC50, entry CC(C)[C@H]1/C=C/COc2c(ccc(F)c2F)[C@@H](c2ccccc2)N2CN1C(=O)c1c(O)c(=O)ccn12 (single isomer, unassigned) [Compound 128AB] : > 200 nM

Form field CC50, entry O=C1c2c(O)c(=O)ccn2N2CN1CC[C@@H]1C[C@@H]1COc1cccc3c1[C@@H]2c1ccccc1SC3 (single isomer, unassigned) [Compound 144AA] : > 200 nM

Form field CC50, entry CC[C@H]1/C=C/COc2ccccc2[C@H](c2ccccc2)N2CN1C(=O)c1c(O)c(=O)ccn12 [Compound 39AB] : > 2000 nM

Form field CC50, entry O=C1c2c(O)c(=O)ccn2N2CN1C/C=C/CCc1ccccc1[C@@H]2c1ccccn1 [Compound 43B] : > 2000 nM

Form field CC50, entry O=C1c2c(O)c(=O)ccn2N2CN1C1(/C=C/COc3c(ccc(F)c3F)[C@@H]2c2ccccc2)CCC1 [Compound 146B] : > 10000 nM

Form field CC50, entry O=C1c2c(O)c(=O)ccn2N2CN1CCC=CCc1ccccc1C2c1ccccc1 (stereo not shown) : > 2000 nM

Form field CC50, entry CC[C@H]1/C=C/COc2c(F)cccc2[C@@H](c2ccccn2)N2CN1C(=O)c1c(O)c(=O)ccn12 (single isomer, unassigned) [Compound 154AB] : > 100 nM

Form field CC50, entry O=C1c2c(O)c(=O)ccn2N2CN1C[C@H]1C[C@@H]1COc1cc(F)c(F)c3c1[C@H]2c1ccccc1SC3 (single isomer, unassigned) [Compound 127BA] : > 200 nM

Form field CC50, entry C[C@@H]1/C=C/COc2c(ccc(F)c2F)[C@H](c2ccccc2)N2CN1C(=O)c1c(O)c(=O)ccn12 (single isomer, unassigned) [Compound 148BA] : > 10000 nM

Form field CC50, entry C/C1=C/COc2ccccc2[C@@H](c2ccccc2)N2CN(C1)C(=O)c1c(O)c(=O)ccn12 (single isomer, unassigned) [Compound 38A] : > 2000 nM

Form field CC50, entry O=C1c2c(O)c(=O)ccn2N2CN1CC/C=C/COc1cc(F)ccc1[C@@H]2c1ccccc1 (single isomer, unassigned) [Compound 77A] : 33200 nM

Form field CC50, entry CS(=O)(=O)c1ccccc1[C@@H]1c2cccc(F)c2OC/C=C\CN2CN1n1ccc(=O)c(O)c1C2=O (single isomer, unassigned) : > 200 nM

Form field CC50, entry O=C1c2c(O)c(=O)ccn2N2CN1C1(/C=C/COc3c(ccc(F)c3F)[C@H]2c2ccccc2)CCC1 [Compound 146A] : > 100 nM

Form field CC50, entry O=C1c2c(O)c(=O)ccn2N2CN1C1(/C=C/COc3c(ccc(Cl)c3Cl)[C@H]2c2ccccc2)CC1 (single isomer, unassigned) [Compound 113A] : > 200 nM

Form field CC50, entry COC[C@@H]1N2C/C=C\COc3ccccc3[C@@H](c3ccccc3)N1n1ccc(=O)c(O)c1C2=O (single isomer, unassigned) [Compound 109A] : > 200 nM

Form field CC50, entry CC[C@@H]1/C=C/COc2c(F)cccc2[C@@H](c2ccccc2)N2CN1C(=O)c1c(O)c(=O)ccn12 (single isomer, unassigned) [Compound 85AB] : > 200 nM

Form field CC50, entry O=C1c2c(O)c(=O)ccn2N2CN1C/C=C\CCOc1ccccc1C2c1ccccc1 (stereo not shown) : > 2000 nM

Form field CC50, entry CC(C)[C@@H]1/C=C/COc2c(ccc(F)c2F)[C@@H](c2ccccc2)N2CN1C(=O)c1c(O)c(=O)ccn12 (single isomer, unassigned) [Compound 128AA] : > 200 nM

Form field CC50, entry CC[C@@H]1/C=C/COc2cc(F)c(F)c3c2[C@H](c2ccccc2SC3)N2CN1C(=O)c1c(O)c(=O)ccn12 (single isomer, unassigned) [Compound 126AB] : > 200 nM

Form field CC50, entry O=C1c2c(O)c(=O)ccn2N2CN1C/C=C\COc1ccccc1C2c1ccccc1 (stereo not shown) : > 2000 nM
